# growth listing for each entry below
Tested on: NCI-H226 lung
Test: NCI-60 one-dose screen, 48 h (100 = growth as untreated, 0 = no growth, -100 = all killed)
Conditions: 10 µM unless noted
Protocol: Growth inhibition of the NCI-H226 human Non-Small Cell Lung tumor cell line is measured as a screen for anti-cancer activity. Cells are grown in 96 well plates and exposed to the test compound for 48 hours. Compounds are tested at a single concentration, which is 10^-5 M for most compounds. The reported endpoint is percent growth (GI% or GIPRCNT), where numbers from 0 - 100% represent growth inhibition, and numbers from -100% - 0 represent cell death. […]
This is part of a sample that, as a whole, favours compounds with a hit. Of some 83,000 tested, about 20% had one in any assay.
READOUT LABEL: growth (%)

>>> print(df.to_string())
                                    compound  readout_label  observed_result
 0                 CCOC(=O)/C=C\C(=O)NC(N)=O         growth             96.9
 1   N=C(N)c1ccc(-c2ccc(-c3ccc(Cl)cc3)o2)nc1         growth            -68.2
 2  COc1ccc(NC(=O)CSc2nc3ccccc3c(=O)n2-c2ccccc2C(F)(F)F)c(OC)c1OC         growth              102
 3  COc1cc2nc(SCc3cc(OC)c(OC)c(OC)c3)n(Cc3ccccc3)c(=O)c2cc1OC         growth             49.7
 4  O=C(Nc1ccc(OCc2nnc(-c3ccc(Cl)cc3)o2)c(F)c1)Nc1ccc(Cl)c(Cl)c1         growth             78.7
 5  CC1(C)OC2COC3(C(=O)O)OC(C)(C)OC3C2O1 (stereo unspecified)         growth             99.9
 6  COc1cc(CNC(=O)CSc2nc3ccccc3c(=O)n2Cc2cc(OC)c(OC)c(OC)c2)cc(OC)c1OC         growth             94.5
 7                             O=S(=O)(O)CCl         growth              106
 8  CCN1C(=O)N(CC)C2C1NN=c1s/c(=C3\C(=O)N(C4CCCC4)c4ccccc43)c(=O)n12 (stereo unspecified)         growth             99.8
 9  CCN1C(=S)N(CC)C2Nn3c(s/c(=C4\C(=O)N(C)c5ccccc54)c3=O)=NC21 (stereo unspecified)         growth             88.6
10  CC(C)(C)c1cn2cccc(C(=O)N3CCN(CC(=O)Nc4ccc(Cl)cc4C(=O)c4ccccc4Cl)CC3)c2n1         growth             71.6
